Several publications report IC50 on Tyrosine-protein phosphatase non-receptor type 1 (Homo sapiens); those values are gathered here.
Target: Tyrosine-protein phosphatase non-receptor type 1 (Homo sapiens)
Sequence (P18031 whole entry): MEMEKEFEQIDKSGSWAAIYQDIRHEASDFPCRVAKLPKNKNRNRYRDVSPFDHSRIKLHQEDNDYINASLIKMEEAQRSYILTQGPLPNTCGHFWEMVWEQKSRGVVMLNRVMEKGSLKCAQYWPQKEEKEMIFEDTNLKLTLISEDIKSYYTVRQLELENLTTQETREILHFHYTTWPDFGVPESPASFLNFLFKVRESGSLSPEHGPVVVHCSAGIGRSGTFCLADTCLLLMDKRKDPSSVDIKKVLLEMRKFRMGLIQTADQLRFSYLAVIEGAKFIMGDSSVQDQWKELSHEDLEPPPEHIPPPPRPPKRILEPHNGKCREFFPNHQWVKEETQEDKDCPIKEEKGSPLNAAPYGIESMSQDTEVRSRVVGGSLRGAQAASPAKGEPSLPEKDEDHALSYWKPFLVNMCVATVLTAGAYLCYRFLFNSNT
Please reply with the bare figure in µM and do not write the unit itself.

-- ask Field: IC50 (Tyrosine-protein phosphatase non-receptor type 1 (Homo sapiens)). Entry: COC1=CC(=O)C=C(C[C@@]2(C)CC[C@]3(C)C(C)=CCC[C@H]3[C@H]2C)C1=O
-- reply 39.5

-- ask Field: IC50 (Tyrosine-protein phosphatase non-receptor type 1 (Homo sapiens)). Entry: Cc1cc(-c2ccc(/N=N/c3ccc4c(S(=O)(=O)O)cc(S(=O)(=O)O)c(N)c4c3O)c(C)c2)ccc1/N=N/c1ccc2c(S(=O)(=O)O)cc(S(=O)(=O)O)c(N)c2c1O
-- reply 1.3

-- ask Field: IC50 (Tyrosine-protein phosphatase non-receptor type 1 (Homo sapiens)). Entry: Cc1ncc2c(n1)C(C)(C)[C@@H]1CC[C@]3(C)[C@H](CC=C4[C@@H]5CC(C)(C)CC[C@]5(C(=O)O)CC[C@]43C)[C@@]1(C)C2
-- reply 2.61

-- ask Field: IC50 (Tyrosine-protein phosphatase non-receptor type 1 (Homo sapiens)). Entry: CNc1nc(N)nc2nc(-c3ccccc3OC)ccc12
-- reply 2.79

---

Target: Tyrosine-protein phosphatase non-receptor type 1 (Homo sapiens)
Sequence (P18031 whole entry): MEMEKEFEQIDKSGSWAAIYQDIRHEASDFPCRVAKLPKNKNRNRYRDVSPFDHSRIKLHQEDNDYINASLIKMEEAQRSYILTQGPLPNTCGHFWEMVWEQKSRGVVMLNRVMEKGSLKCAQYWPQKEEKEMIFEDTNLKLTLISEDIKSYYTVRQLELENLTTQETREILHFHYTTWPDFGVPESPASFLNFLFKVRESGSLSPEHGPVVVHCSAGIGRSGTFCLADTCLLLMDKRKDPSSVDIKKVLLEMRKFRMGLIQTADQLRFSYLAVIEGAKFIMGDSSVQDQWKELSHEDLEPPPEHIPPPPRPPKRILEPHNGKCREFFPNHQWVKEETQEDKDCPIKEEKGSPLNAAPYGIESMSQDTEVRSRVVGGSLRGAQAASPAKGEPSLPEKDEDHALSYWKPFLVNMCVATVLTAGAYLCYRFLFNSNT
pIC50: −log10 of the molar value.
Several publications report pIC50 on Tyrosine-protein phosphatase non-receptor type 1 (Homo sapiens); those values are gathered here.

-- ask Recorded pIC50 of CCCCCCCCCCCCCCCC(NCc1ccc(N(C)C)cc1)=C1C(=O)OC(CO)C1=O (mixture of isomers) , please.
-- reply < 4.00

-- ask Recorded pIC50 of CCCCCCCCCCCCCCCC(NCc1ccc(F)cc1)=C1C(=O)OC(CO)C1=O (mixture of isomers) , please.
-- reply < 4.00

-- ask Recorded pIC50 of CC(=O)O[C@H]1[C@@H](C)C[C@@]23O[C@@]12/C=C(\C)[C@@H](O)[C@H](OC(=O)c1ccccc1)[C@H]1[C@@H]([C@@H](O)[C@@H](C)C3=O)C1(C)C , please.
-- reply < 5.00

-- ask Recorded pIC50 of CCOP(=O)(O)C(N[C@H](C(=O)O)[C@@H](C)O)c1ccccc1O (stereo partly specified) , please.
-- reply < 2.00

-- ask Recorded pIC50 of CCCCCCCCCCCCCCCC(NCc1ccccc1O)=C1C(=O)OC(CO)C1=O (mixture of isomers) , please.
-- reply < 4.00

-- ask Recorded pIC50 of C=CCC(O)C[C@H]1C(C)=CC[C@H]2C(C)(C)CCC[C@]12C (stereo partly specified) , please.
-- reply < 3.44

---

Several publications report IC50 on Tyrosine-protein phosphatase non-receptor type 1 (Homo sapiens, UniProt P18031); those values are gathered here.

-- ask Recorded IC50 of CCCC(=O)C1=C(O)OC(C)(C)OC1=O , please.
-- reply > 100 µM

-- ask Recorded IC50 of Cc1ccc2ccc(C(F)(F)P(=O)(O)O)cc2n1 , please.
-- reply > 50 µM

-- ask Recorded IC50 of CCOP(=O)(O)C(NCCCNC(c1ccccc1O)P(=O)(O)OCC)c1ccccc1O (stereo not drawn) , please.
-- reply > 10000 µM
